Source: the RNAGym collection of RNA variant scans (doi:10.7554/elife.80360)

B1: Hairpin Ribozyme (parent)
chain: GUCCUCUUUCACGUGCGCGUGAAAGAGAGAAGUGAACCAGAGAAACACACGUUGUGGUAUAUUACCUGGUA

Variants of: B1
method_notes: self-cleavage, relative activity (ratio to wild type); higher = more cleavage; co-transcriptional
experimental_readout: self-cleavage

Please review the following examples before continuing.
> print(dat)
                                biosequence  experimental.readout  endpoint.result
1  GUCCUCUUUCACGUGCGCGUGAAAGAGAGAAGUGAACUAGAGAAACACACGUUGGGGUAUAUUACCUGGUA [C38U U55G]         self-cleavage            0.137
2  GUCCUCUUUGACGUGCGCGUGAAAGAGAGAAGUGAACCAGAGAAACACGCGUUGUGGUAUAUUACCUGGUA [C10G A49G]         self-cleavage            0.343
3  GUCCUCUUUCCCGUGCGUGUGAAAGAGAGAAGUGAACCAGAGAAACACACGUUGUGGUAUAUUACCUGGUA [A11C C18U]         self-cleavage             0.94
4  GUCCUCUUUCACGUGCGCGUGACACAGAGAAGUGAACCAGAGAAACACACGUUGUGGUAUAUUACCUGGUA [A23C G25C]         self-cleavage            0.147

Moving on to the next variant.
Req: Quick one: self-cleavage of GUCCUCUUUCACGUGCGCGUGAAAGAUAGAAGUUAACCAGAGAAACACACGUUGUGGUAUAUUACCUGGUA [G27U G34U] ?
Resp: 1.15
